Every entry's value here was drawn from patent US20190177730.

target: PCSK9 D374Y D374Y (Homo sapiens) (UniProt Q8NBP7+Q8NBP7)
Sequence (Q8NBP7 whole entry, stated change not applied, chain 1 of 2): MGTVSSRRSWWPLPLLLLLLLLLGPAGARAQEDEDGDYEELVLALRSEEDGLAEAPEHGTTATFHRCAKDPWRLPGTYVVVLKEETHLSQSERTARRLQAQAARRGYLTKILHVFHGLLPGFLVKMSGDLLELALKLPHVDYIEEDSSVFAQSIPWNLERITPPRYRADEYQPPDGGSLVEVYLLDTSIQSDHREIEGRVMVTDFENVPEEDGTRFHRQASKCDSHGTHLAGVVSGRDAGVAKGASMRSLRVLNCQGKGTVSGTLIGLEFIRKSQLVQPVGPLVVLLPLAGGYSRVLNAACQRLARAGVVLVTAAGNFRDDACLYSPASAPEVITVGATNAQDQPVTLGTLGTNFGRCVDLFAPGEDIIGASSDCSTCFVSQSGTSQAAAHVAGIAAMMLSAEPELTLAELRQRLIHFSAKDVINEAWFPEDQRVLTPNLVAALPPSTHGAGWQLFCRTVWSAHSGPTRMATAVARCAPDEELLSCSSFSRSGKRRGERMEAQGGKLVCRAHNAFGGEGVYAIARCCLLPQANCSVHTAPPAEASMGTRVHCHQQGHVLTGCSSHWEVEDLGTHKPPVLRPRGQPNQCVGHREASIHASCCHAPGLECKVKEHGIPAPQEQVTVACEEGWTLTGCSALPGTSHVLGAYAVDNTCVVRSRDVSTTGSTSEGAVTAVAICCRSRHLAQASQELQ
Sequence (Q8NBP7 whole entry, stated change not applied, chain 2 of 2): as the sequence (Q8NBP7 whole entry, stated change not applied, chain 1 of 2) above
assay overview: filter
particulars: all C = PP-dC (5-position), all U = Nap-dU (5-position); aptamer identity per figure legend; text names 11733-198
pKd: −log10 of the molar value.
assay endpoint: pKd

• AACGUACUUUAAGGCCUAUUGAGGAAACUC [11733-44 (SL1063)] = 11.28
